Target: T1, Human CD100 (human, UniProt Q92854 22-734, limits assumed)
T1 construct: also called SEMA4D; Hu CD100
T1 sequence (looked up): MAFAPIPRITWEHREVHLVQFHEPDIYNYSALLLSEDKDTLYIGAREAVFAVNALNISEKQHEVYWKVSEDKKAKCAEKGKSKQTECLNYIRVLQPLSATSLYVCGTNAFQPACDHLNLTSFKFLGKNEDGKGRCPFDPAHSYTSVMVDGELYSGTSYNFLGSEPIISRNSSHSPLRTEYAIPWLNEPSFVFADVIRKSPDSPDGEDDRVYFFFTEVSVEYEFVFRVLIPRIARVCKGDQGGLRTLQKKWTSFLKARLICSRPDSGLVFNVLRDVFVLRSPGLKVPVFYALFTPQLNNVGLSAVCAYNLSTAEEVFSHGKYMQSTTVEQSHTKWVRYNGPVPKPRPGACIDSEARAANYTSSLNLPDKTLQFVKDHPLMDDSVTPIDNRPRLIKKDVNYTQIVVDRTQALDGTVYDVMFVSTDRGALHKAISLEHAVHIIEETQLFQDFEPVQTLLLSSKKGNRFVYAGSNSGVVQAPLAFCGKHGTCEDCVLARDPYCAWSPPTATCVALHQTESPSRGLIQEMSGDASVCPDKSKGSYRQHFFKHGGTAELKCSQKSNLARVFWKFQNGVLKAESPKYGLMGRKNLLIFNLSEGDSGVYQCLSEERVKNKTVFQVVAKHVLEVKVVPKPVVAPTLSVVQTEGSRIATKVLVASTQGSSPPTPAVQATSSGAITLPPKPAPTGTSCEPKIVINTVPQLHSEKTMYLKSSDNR
Test: affinity testing, method and unit not printed in Example 10 (nM as in Table 3)
Exercise: for every item that follows, state its recorded Kd.

binder="MAb 2275 (antibody, V domains shown, Double mutant of H1651 with L284; also called H1651 Q6A G57F with L284) VH: QVQLVASGAEVKKPGSSVKVSCKASGYTFTDYYMDWVRQAPGQGLEWMGRVNPYHGFATYNQKFKGRVTITADKSTSTAYMELSSLRSEDTAVYYCAREENSYDGYYGMDYWGQGTLVTVSS VL: DIVMTQSPLSLPVSPGEPATINCKSSQSLFNSGNQKNYLAWYLQKPGQPPKLLIYGASTRESGVPDRFSGSGSGTDFTLTISSLQAEDVAVYYCQNDHTYPYTFGQGTKLEIK" obs_value="0.09 nM"
binder="MAb 2279 (antibody, V domains shown, Double mutant of H1651 with L284; also called H1651 Q6A Y60V with L284) VH: QVQLVASGAEVKKPGSSVKVSCKASGYTFTDYYMDWVRQAPGQGLEWMGRVNPYHGGATVNQKFKGRVTITADKSTSTAYMELSSLRSEDTAVYYCAREENSYDGYYGMDYWGQGTLVTVSS VL: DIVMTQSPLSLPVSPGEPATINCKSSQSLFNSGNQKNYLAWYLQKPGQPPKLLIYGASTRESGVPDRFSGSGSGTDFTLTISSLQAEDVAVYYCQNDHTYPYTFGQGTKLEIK" obs_value="0.14 nM"
binder="MAb 2274 (antibody, V domains shown, Double mutant of H1651 with L284; also called H1651 Q6A D31K with L284) VH: QVQLVASGAEVKKPGSSVKVSCKASGYTFTKYYMDWVRQAPGQGLEWMGRVNPYHGGATYNQKFKGRVTITADKSTSTAYMELSSLRSEDTAVYYCAREENSYDGYYGMDYWGQGTLVTVSS VL: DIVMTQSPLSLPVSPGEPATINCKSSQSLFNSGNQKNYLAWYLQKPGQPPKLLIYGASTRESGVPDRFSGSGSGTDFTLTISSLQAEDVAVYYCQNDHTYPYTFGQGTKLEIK" obs_value="0.1 nM"

// for each binder in input: emit Kd
1. MAb 2277 (antibody, V domains shown, Double mutant of H1651 with L284; also called H1651 Q6A T59F with L284) VH: QVQLVASGAEVKKPGSSVKVSCKASGYTFTDYYMDWVRQAPGQGLEWMGRVNPYHGGAFYNQKFKGRVTITADKSTSTAYMELSSLRSEDTAVYYCAREENSYDGYYGMDYWGQGTLVTVSS VL: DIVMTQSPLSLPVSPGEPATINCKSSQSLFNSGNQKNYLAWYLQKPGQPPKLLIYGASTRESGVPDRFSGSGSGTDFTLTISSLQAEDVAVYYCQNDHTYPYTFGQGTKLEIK
2. MAb 2283 (antibody, V domains shown, Double mutant of H1651 with L284; also called H1651 K23T T59F with L284) VH: QVQLVQSGAEVKKPGSSVKVSCTASGYTFTDYYMDWVRQAPGQGLEWMGRVNPYHGGAFYNQKFKGRVTITADKSTSTAYMELSSLRSEDTAVYYCAREENSYDGYYGMDYWGQGTLVTVSS VL: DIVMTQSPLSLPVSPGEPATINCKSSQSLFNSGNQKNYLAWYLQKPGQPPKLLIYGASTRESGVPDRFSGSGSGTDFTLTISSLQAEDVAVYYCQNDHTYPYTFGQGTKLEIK

*A*
1. 0.09 nM
2. 0.13 nM
